# Tested system: SARS-CoV-2 Mac1 (Severe acute respiratory syndrome coronavirus 2)
# Test method notes: biochemical
# Applied conditions: read-out: %inhibition
Structures can show the parent of a compound that is named as a salt.

>  <Compound>
O=C1Cc2cc(CCN3CCN(c4nsc5ccccc45)CC3)c(Cl)cc2N1 [Ziprasidone HCl]

>  <inhibition at 100 µM>
0%

$$$$
>  <Compound>
COc1c(C)c2c(c(O)c1C/C=C(\C)CCC(=O)O)C(=O)OC2

>  <inhibition at 100 µM>
0%

$$$$
>  <Compound>
CCCC(=O)OCOC(=O)C1=C(C)NC(C)=C(C(=O)OC)C1c1cccc(Cl)c1Cl (stereo not drawn) [Clevidipine Butyrate]

>  <inhibition at 100 µM>
0%

$$$$
>  <Compound>
C[N+]1(C)[C@@H]2C[C@@H](OC(=O)C(O)(c3cccs3)c3cccs3)C[C@H]1[C@@H]1O[C@@H]12 [Tiotropium Bromide hydrate]

>  <inhibition at 100 µM>
19.5%

$$$$
>  <Compound>
NC(=O)c1cc(N2CC2)c([N+](=O)[O-])cc1[N+](=O)[O-]

>  <inhibition at 100 µM>
5.18%

$$$$
>  <Compound>
COc1nc(C)cnc1NS(=O)(=O)c1cccnc1-c1ccc(-c2nnco2)cc1 [Zibotentan (ZD4054)]

>  <inhibition at 100 µM>
7.65%

$$$$
>  <Compound>
CC1CCc2cc(F)cc3c(=O)c(C(=O)O)cn1c23 (stereo not drawn)

>  <inhibition at 100 µM>
0%

$$$$
>  <Compound>
CO[C@H]1C[C@H](O[C@@H]2/C(C)=C/C[C@@H]3C[C@@H](C[C@]4(CC[C@H](C)[C@@H](C5CCCCC5)O4)O3)OC(=O)[C@@H]3C=C(C)/C(=N/O)[C@H]4OC/C(=C\C=C\[C@@H]2C)[C@]43O)O[C@@H](C)[C@@H]1O

>  <inhibition at 100 µM>
13.4%

$$$$
>  <Compound>
CC(C)(Oc1ccc(C(=O)c2ccc(Cl)cc2)cc1)C(=O)O

>  <inhibition at 100 µM>
0%

$$$$
